tgt: T1, c-erbB-2 ECD with a Ser-Gly-His6 C-terminal fusion (UniProt P04626 23-652)
T1 construct: extracellular domain; Expressed from CHO cells, IMAC purified; coupled to a CM5 chip, coated on plates, or biotinylated with NHS-LC-biotin; also called c-erbB-2 extracellular domain; biotinylated c-erbB-2 ECD
assayMethodText: SPR BIAcore
Entries and their kon
Only the number, expressed in M⁻¹ s⁻¹, is required.

So what's the measured kon for this one? C6.5S100cA (scFv, C6.5 VH CDR3 scan mutant; Kabat numbering) scFv: QVQLLQSGAELKKPGESLKISCKGSGYSFTSYWIAWVRQMPGKGLEYMGLIYPGDSDTKYSPSFQGQVTISVDKSVSTAYLQWSSLKPSDSAVYFCARHDVGYCSSANCAKWPEYFQHWGQGTLVTVSSGGGGSGGGGSGGGGSQSVLTQPPSVSAAPGQKVTISCSGSSSNIGNNYVSWYQQLPGTAPKLLIYGHTNRPAGVPDRFSGSKSGTSASLAISGFRSEDEADYYCAAWDDSLSGWVFGGGTKLTVLG
450000

So what's the measured kon for this one? C6.5Y99A (scFv, C6.5 VH CDR3 scan mutant; Kabat numbering) scFv: QVQLLQSGAELKKPGESLKISCKGSGYSFTSYWIAWVRQMPGKGLEYMGLIYPGDSDTKYSPSFQGQVTISVDKSVSTAYLQWSSLKPSDSAVYFCARHDVGACSSSNCAKWPEYFQHWGQGTLVTVSSGGGGSGGGGSGGGGSQSVLTQPPSVSAAPGQKVTISCSGSSSNIGNNYVSWYQQLPGTAPKLLIYGHTNRPAGVPDRFSGSKSGTSASLAISGFRSEDEADYYCAAWDDSLSGWVFGGGTKLTVLG
900000

So what's the measured kon for this one? C6.5S100aA (scFv, C6.5 VH CDR3 scan mutant; Kabat numbering) scFv: QVQLLQSGAELKKPGESLKISCKGSGYSFTSYWIAWVRQMPGKGLEYMGLIYPGDSDTKYSPSFQGQVTISVDKSVSTAYLQWSSLKPSDSAVYFCARHDVGYCASSNCAKWPEYFQHWGQGTLVTVSSGGGGSGGGGSGGGGSQSVLTQPPSVSAAPGQKVTISCSGSSSNIGNNYVSWYQQLPGTAPKLLIYGHTNRPAGVPDRFSGSKSGTSASLAISGFRSEDEADYYCAAWDDSLSGWVFGGGTKLTVLG
470000

So what's the measured kon for this one? C6.5F100lA (scFv, C6.5 VH CDR3 scan mutant; Kabat numbering; also called F1001A) scFv: QVQLLQSGAELKKPGESLKISCKGSGYSFTSYWIAWVRQMPGKGLEYMGLIYPGDSDTKYSPSFQGQVTISVDKSVSTAYLQWSSLKPSDSAVYFCARHDVGYCSSSNCAKWPEYAQHWGQGTLVTVSSGGGGSGGGGSGGGGSQSVLTQPPSVSAAPGQKVTISCSGSSSNIGNNYVSWYQQLPGTAPKLLIYGHTNRPAGVPDRFSGSKSGTSASLAISGFRSEDEADYYCAAWDDSLSGWVFGGGTKLTVLG
110000

So what's the measured kon for this one? C6.5V97A (scFv, C6.5 VH CDR3 scan mutant; Kabat numbering) scFv: QVQLLQSGAELKKPGESLKISCKGSGYSFTSYWIAWVRQMPGKGLEYMGLIYPGDSDTKYSPSFQGQVTISVDKSVSTAYLQWSSLKPSDSAVYFCARHDAGYCSSSNCAKWPEYFQHWGQGTLVTVSSGGGGSGGGGSGGGGSQSVLTQPPSVSAAPGQKVTISCSGSSSNIGNNYVSWYQQLPGTAPKLLIYGHTNRPAGVPDRFSGSKSGTSASLAISGFRSEDEADYYCAAWDDSLSGWVFGGGTKLTVLG
310000
